Tested on: MOLT-4 leukemia
Protocol text: NCI tumour cell line growth inhibition, 48 h
Recorded endpoint: TGI

[
  {
    "Molecule": "C=C1C(=O)OC2C1C(OC(=O)/C(C)=C/C)CC(O)(CCl)C1C(OC(C)=O)C=C(C)C21O (centres undefined)",
    "Readout value": "21.1 µM"
  },
  {
    "Molecule": "O=S(=O)(O)c1cccc2ccc(O)c(N=Nc3ccc(S(=O)(=O)c4ccc(N=Nc5c(O)ccc6cccc(S(=O)(=O)O)c56)cc4)cc3)c12",
    "Readout value": "> 100 µM"
  },
  {
    "Molecule": "c1ccc(Oc2c3ccccc3nc3ccccc23)cc1",
    "Readout value": "48 µM"
  },
  {
    "Molecule": "CC(C)/C(Cl)=N/OC(NC(=O)Nc1ccc(Cl)c(Cl)c1)(C(F)(F)F)C(F)(F)F",
    "Readout value": "12 µM"
  },
  {
    "Molecule": "CC(=O)CC(=O)CCCC(=O)Nc1ccc(Cl)cc1Cl",
    "Readout value": "> 100 µM"
  },
  {
    "Molecule": "COc1ccccc1-c1n[nH]c(-c2ccccc2O)n1",
    "Readout value": "> 100 µM"
  },
  {
    "Molecule": "C=C[C@@]1(C)CC(=O)[C@]2(O)[C@@]3(C)[C@@H](OC(C)=O)CCC(C)(C)[C@@H]3[C@H](O)[C@H](OC(C)=O)[C@@]2(C)O1",
    "Readout value": "> 100 µM"
  },
  {
    "Molecule": "O=NN(CCCl)C(=O)NCc1ccc[n+]([O-])c1",
    "Readout value": "> 100 µM"
  },
  {
    "Molecule": "c1ccc2nc3c(nc2c1)sc1nc2ccccc2n13",
    "Readout value": "> 100 µM"
  }
]
